Origin of the recorded values: ChEMBL document CHEMBL1795286

# Test system: Staphylococcus aureus
# METHOD: Antimicrobial activity against Staphylococcus aureus 241 after 18 hrs by twofold agar dilution method
# Format: functional
# CONDITION NOTES: Staphylococcus aureus, 241, 18 h; read-out: MIC
METRIC: MIC (µg/mL)

> print(dat)
                                 smiles.str  metric  value
1  C[C@H](CO)[C@H]1CC[C@H]2[C@@H]3CC[C@H]4C[C@@H](NCCCNCCCCNCCCN)CC[C@]4(C)[C@H]3CC[C@]12C.Cl.Cl.Cl.Cl     MIC      8
2  C[C@H](CO)[C@H]1CC[C@H]2[C@@H]3CC[C@@H]4C[C@@H](NCCCNCCCCNCCCN)CC[C@]4(C)[C@H]3CC[C@]12C.Cl.Cl.Cl.Cl     MIC      2
3  C[C@H](CO)[C@H]1CC[C@H]2[C@@H]3[C@H](O)C[C@H]4C[C@@H](NCCCNCCCCN)CC[C@]4(C)[C@H]3CC[C@]12C.Cl.Cl.Cl     MIC     16
4  C[C@H](CO)[C@H]1CC[C@H]2[C@@H]3CC[C@H]4C[C@H](NCCCNCCCCNCCCN)CC[C@]4(C)[C@H]3CC[C@]12C.Cl.Cl.Cl.Cl     MIC      4
5  C[C@H](CO)[C@H]1CC[C@H]2[C@@H]3[C@H](N)C[C@H]4C[C@@H](NCCCNCCCCN)CC[C@]4(C)[C@H]3CC[C@]12C.Cl.Cl.Cl     MIC     16
6  C[C@H](CO)[C@H]1CC[C@H]2[C@@H]3[C@H](F)C[C@H]4C[C@@H](NCCCNCCCCN)CC[C@]4(C)[C@H]3CC[C@]12C.Cl.Cl.Cl     MIC      8
7  C[C@H](CO)[C@H]1CC[C@H]2[C@@H]3CC[C@@H]4C[C@H](NCCCNCCCCNCCCN)CC[C@]4(C)[C@H]3CC[C@]12C.Cl.Cl.Cl.Cl     MIC      8
